molecular target: melanocortin-4 receptor (human, UniProt P32245 1-332); experiment: cell-based or functional assay
Sequence (P32245 whole entry): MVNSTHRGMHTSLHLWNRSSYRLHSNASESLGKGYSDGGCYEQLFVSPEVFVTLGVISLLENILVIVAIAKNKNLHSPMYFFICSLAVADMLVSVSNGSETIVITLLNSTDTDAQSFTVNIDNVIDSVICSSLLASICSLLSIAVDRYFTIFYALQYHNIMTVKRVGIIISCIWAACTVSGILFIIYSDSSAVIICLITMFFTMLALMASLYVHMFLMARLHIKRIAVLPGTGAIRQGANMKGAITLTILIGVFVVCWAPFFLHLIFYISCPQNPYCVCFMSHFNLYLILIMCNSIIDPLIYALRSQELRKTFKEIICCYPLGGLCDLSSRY
Bridge positions count the residues as written; N and C are the ends. Square brackets hold non-standard residues; d marks the D form. dPhe(4-F) = N[C@H](Cc1ccc(F)cc1)C(=O)O; Pen = CC(C)(S)[C@H](N)C(=O)O; hCys = N[C@@H](CCS)C(=O)O
cAMP Assay (EC-50) by entry:
Output spec: scalar in nM, unitless text.

Previously resolved entries follow.
[
  {
    "Binder": "Ac-RC[dA]W[dF]RWC-NH2 (disulfide 2-8; SMILES CC(=O)N[C@@H](CCCNC(=N)N)C(=O)N[C@H]1CSSC[C@@H](C(N)=O)NC(=O)[C@H](Cc2c[nH]c3ccccc23)NC(=O)[C@H](CCCNC(=N)N)NC(=O)[C@@H](Cc2ccccc2)NC(=O)[C@H](Cc2c[nH]c3ccccc23)NC(=O)[C@@H](C)NC1=O) [Ac-Arg-cyclo[Cys-D-Ala-Trp-D-Phe-Arg-Trp-Cys]-NH2]",
    "Readout value": 34
  },
  {
    "Binder": "Ac-RC[dI]H[dF]RWC-NH2 (disulfide 2-8) [Ac-Arg-cyclo[Cys-D-Ile-His-D-Phe-Arg-Trp-Cys]-NH2]",
    "Readout value": 1
  },
  {
    "Binder": "Ac-RC[dA]P[dPhe(4-F)]RWC-NH2 (disulfide 2-8; SMILES CC(=O)N[C@@H](CCCNC(=N)N)C(=O)N[C@H]1CSSC[C@@H](C(N)=O)NC(=O)[C@H](Cc2c[nH]c3ccccc23)NC(=O)[C@H](CCCNC(=N)N)NC(=O)[C@@H](Cc2ccc(F)cc2)NC(=O)[C@@H]2CCCN2C(=O)[C@@H](C)NC1=O) [Ac-Arg-cyclo[Cys-D-Ala-Pro-D-Phe(p-F)-Arg-Trp-Cys]-NH2]",
    "Readout value": 24
  },
  {
    "Binder": "Ac-R[hCys][dA][dF]RWC-NH2 (disulfide 2-7; SMILES CC(=O)N[C@@H](CCCNC(=N)N)C(=O)N[C@H]1CCSSC[C@@H](C(N)=O)NC(=O)[C@H](Cc2c[nH]c3ccccc23)NC(=O)[C@H](CCCNC(=N)N)NC(=O)[C@@H](Cc2ccccc2)NC(=O)[C@@H](C)NC1=O) [Ac-Arg-cyclo[hCys-D-Ala-D-Phe-Arg-Trp-Cys]-NH2]",
    "Readout value": 7.5
  },
  {
    "Binder": "Ac-R[hCys][dA][dF]RW[Pen]-NH2 (disulfide 2-7; SMILES CC(=O)N[C@@H](CCCNC(=N)N)C(=O)N[C@H]1CCSSC(C)(C)[C@@H](C(N)=O)NC(=O)[C@H](Cc2c[nH]c3ccccc23)NC(=O)[C@H](CCCNC(=N)N)NC(=O)[C@@H](Cc2ccccc2)NC(=O)[C@@H](C)NC1=O) [Ac-Arg-cyclo[hCys-D-Ala-D-Phe-Arg-Trp-Pen]-NH2]",
    "Readout value": 13.7
  }
]

// cAMP Assay (EC-50) lookup, binder = Ac-RC[dA]Y[dF]RWC-NH2 (disulfide 2-8; SMILES CC(=O)N[C@@H](CCCNC(=N)N)C(=O)N[C@H]1CSSC[C@@H](C(N)=O)NC(=O)[C@H](Cc2c[nH]c3ccccc23)NC(=O)[C@H](CCCNC(=N)N)NC(=O)[C@@H](Cc2ccccc2)NC(=O)[C@H](Cc2ccc(O)cc2)NC(=O)[C@@H](C)NC1=O) [Ac-Arg-cyclo[Cys-D-Ala-Tyr-D-Phe-Arg-Trp-Cys]-NH2] , result: 45.1

Provenance of the data: patent US20210040155A1
